Data origin: ChEMBL document CHEMBL1121424

assay: in vivo; conditions: mouse, po, 43 mg/kg
Description: Tested for the peak time in mice following 43 mg/kg oral dose of cephalosporin
REPORTED_METRIC: Tmax (min)

[[record]]
compound = "CC1=C(C(=O)O)N2C(=O)[C@@H](NC(=O)[C@H](N)c3ccccc3)[C@H]2SC1 [CEPHALEXIN ANHYDROUS]"
value_unit = "min"
obs_value = 15


---

assay: Tested for the peak time in mice following 11.8 mg/kg, oral (administered as the sodium salt dissolved in H2O); type: ADME, organism-based; design: dose 11.8 mg/kg, route oral; settings: mouse, in vivo, read-out: Peak time (converted)
REPORTED_METRIC: Tmax

[[record]]
molecule = "Cc1nnc(SCC2=C(C(=O)O)N3C(=O)C(NC(=O)[C@H](N)c4ccc5c(c4)OCO5)C3SC2)s1 (stereo partly specified)"
reported_metric = "Tmax"
obs_value = "30 min"


---

Items are presented alongside their recorded MIC.
tested on: Proteus mirabilis; assay: Tested for inhibition of visible growth of Proteus mirabilis; type: functional
REPORTED_METRIC: MIC (µg/mL)

[[record]]
compound = "CC(=O)OCC1=C(C(=O)O)N2C(=O)[C@@H](NC(=O)Cc3cccs3)[C@H]2SC1"
reported_metric = "MIC"
censor_symbol = "="
obs_value = 12.5

[[record]]
compound = "N[C@H](C(=O)NC1C(=O)N2C(C(=O)O)=C(CSc3c[nH]nn3)CSC12)c1ccc2c(c1)OCO2 (stereo not given in full)"
reported_metric = "MIC"
censor_symbol = ">"
obs_value = 50

[[record]]
compound = "CC1(C)S[C@@H]2[C@H](NC(=O)C(C(=O)O)c3ccccc3)C(=O)N2[C@H]1C(=O)O (stereo not given in full)"
reported_metric = "MIC"
censor_symbol = "="
obs_value = 0.8

[[record]]
compound = "CC(=O)OCC1=C(C(=O)O)N2C(=O)C(NC(=O)C(N)c3ccc4c(c3)OCO4)C2SC1 (racemic)"
reported_metric = "MIC"
censor_symbol = "="
obs_value = 100

[[record]]
compound = "NC(C(=O)NC1C(=O)N2C(C(=O)O)=C(CSc3cn[nH]n3)CS[C@H]12)c1ccc2c(c1)CCO2 (stereo not given in full)"
reported_metric = "MIC"
censor_symbol = "="
obs_value = 100


---

Items are presented alongside their recorded MIC.
test system: Staphylococcus aureus; assay: Tested for inhibition of visible growth of Staphylococcus aureus; type: functional
REPORTED_METRIC: MIC (µg/mL)

[[record]]
compound = "CC(=O)OCC1=C(C(=O)O)N2C(=O)[C@@H](NC(=O)Cc3cccs3)[C@H]2SC1"
test_target = "Staphylococcus aureus"
obs_value = 0.8

[[record]]
compound = "NC(C(=O)NC1C(=O)N2C(C(=O)O)=C(CSc3cn[nH]n3)CS[C@H]12)c1ccc2c(c1)CCO2 (stereo partly specified)"
test_target = "Staphylococcus aureus"
obs_value = 1.6

[[record]]
compound = "N[C@@H](C(=O)NC1C(=O)N2C(C(=O)O)=C(CSc3c[nH]nn3)CSC12)c1ccc2c(c1)OCO2 (stereo partly specified)"
test_target = "Staphylococcus aureus"
obs_value = 0.8

[[record]]
compound = "CC1(C)SC2C(NC(=O)C(C(=O)O)c3ccc4c(c3)OCO4)C(=O)N2C1C(=O)O (racemic)"
test_target = "Staphylococcus aureus"
obs_value = 12.5

[[record]]
compound = "CC1(C)S[C@@H]2[C@H](NC(=O)[C@H](N)c3ccc(O)cc3)C(=O)N2[C@H]1C(=O)O"
test_target = "Staphylococcus aureus"
obs_value = 100

[[record]]
compound = "Cn1nnnc1SCC1=C(C(=O)O)N2C(=O)C(NC(=O)[C@H](N)c3ccc4c(c3)OCO4)C2SC1 (stereo partly specified)"
test_target = "Staphylococcus aureus"
obs_value = 1.6

